Target: GST-CBP(1081-1197) bromodomain (Homo sapiens (Human))
Assay: CBP AlphaScreen Assay
Conditions: binding to biotin-H4(1-21) Ac-K5/8/12/16
Consider the following molecules and their measured IC50 readings.

Example results:
{"MOLECULE": "CN1Cc2c(-c3cccc4cc(N5CCOCC5)ncc34)nc(C3CCOCC3)n2CC1=O", "IC50": "145 nM"}
{"MOLECULE": "Cc1c(-c2cc3cccc(-c4nc(C5CC5)n5c4CN(C)C(=O)C5C)c3cn2)cnn1C (stereo not shown)", "IC50": "4 nM"}
{"MOLECULE": "CC1C(=O)N(C)Cc2c(-c3c(F)ccc4cc(-c5ccn(C)n5)ncc34)nc(C3CCOCC3)n21 (single isomer, unassigned) [Example 90b]", "IC50": "4 nM"}
{"MOLECULE": "C[C@@H]1C(=O)N(C)Cc2c(-c3cccc4nc(-c5cnn(C)c5)c(C(F)F)cc34)nc(C3CC3)n21 [Example 110b]", "IC50": "1 nM"}
{"MOLECULE": "CN1Cc2c(N3CCCc4cc(-c5cnn(C)c5)c(C(F)F)cc43)nc(C3CC3)n2CC1=O [Example 1]", "IC50": "7 nM"}
{"MOLECULE": "Cc1nn(C)cc1-c1cc2cccc(-c3nc(C4CCOCC4)n4c3CN(C)C(=O)C4)c2cn1", "IC50": "181 nM"}

Let's switch to this molecule now.
[in] Given the molecule C[C@H]1C(=O)N(C)Cc2c(-c3cccc4nc(-c5ccn(C)n5)c(C(F)F)cc34)nc(C3CCOCC3)n21 [Example 89b] , what is its reported IC50?
[out] 482 nM

---

Molecular target: GST-CBP(1081-1197) bromodomain (Homo sapiens (Human), UniProt Q92793)
Sequence (Q92793 1081-1197): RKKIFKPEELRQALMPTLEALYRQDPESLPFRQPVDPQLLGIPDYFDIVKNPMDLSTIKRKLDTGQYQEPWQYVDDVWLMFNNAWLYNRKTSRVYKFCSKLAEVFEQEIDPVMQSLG
Assay: CBP AlphaScreen Assay
Details: binding to biotin-H4(1-21) Ac-K5/8/12/16
RECORDED_METRIC: IC50 (nM)
Quick reminder: number only, in nM, skip the unit.

Example results:
{"MOLECULE": "CC1C(=O)N(C)Cc2c(-c3cccc4nc(-c5cnn(C)c5)c(C(F)F)cc34)nc(C3CN(CC(F)(F)F)C3)n21 (stereo not shown)", "IC50 / nM": 13}
{"MOLECULE": "CC1C(=O)N(C)Cc2c(-c3cccc4nc(-c5cnn(C)c5)c(C(F)F)cc34)nc(C3CCN(CCO)CC3)n21 (stereo not shown)", "IC50 / nM": 230}
{"MOLECULE": "Cc1cn(-c2cc3cccc(-c4nc(C5CCOCC5)n5c4CN(C)C(=O)C5C)c3cn2)cn1 (single isomer, unassigned) [Example 30a]", "IC50 / nM": 1}

[in] Given the molecule CC1C(=O)N(C)Cc2c(-c3cccc4nc(C5=CCOCC5)c(C(F)F)cc34)nc(C3CC3)n21 (stereo not shown) , what is its reported IC50?
[out] 3

[in] Given the molecule CC1C(=O)N(C)Cc2c(-c3cccc4cc(C5CCOCC5)ncc34)nc(C3CC3)n21 (stereo not shown) , what is its reported IC50?
[out] 2

[in] Given the molecule CC1C(=O)N(C)Cc2c(-c3cc4c(-c5cnn(C)c5)nn(C)c4cc3F)nc(C3=CCOCC3)n21 (stereo not shown) , what is its reported IC50?
[out] 28

[in] Given the molecule CC1C(=O)N(C)Cc2c(-c3cccc4nc(-c5cnn(C)c5)c(C(F)F)cc34)nc(C3CCS(=O)(=O)CC3)n21 (single isomer, unassigned) [Example 29b] , what is its reported IC50?
[out] 32

[in] Given the molecule CC1C(=O)N(C)Cc2c(-c3cccc4nc(-c5cnn(C)c5)c(C(F)(F)F)cc34)nc(C3CCOCC3)n21 (single isomer, unassigned) [Example 26b] , what is its reported IC50?
[out] 271

[in] Given the molecule CC1C(=O)N(C)Cc2c(-c3cccc4cc(N5CCOCC5)ncc34)nc(C3CCOCC3)n21 (single isomer, unassigned) [Example 16a] , what is its reported IC50?
[out] 1120

[in] Given the molecule CC1C(=O)N(C)Cc2c(-c3cccc4nc(-c5cnn(C)c5)c(C(F)F)cc34)nc(C3CN(S(C)(=O)=O)C3)n21 (stereo not shown) , what is its reported IC50?
[out] 37

[in] Given the molecule Cc1cn(-c2cc3cccc(-c4nc(C5CC5)n5c4CN(C)C(=O)C5C)c3cn2)nc1C (stereo not shown) , what is its reported IC50?
[out] 2
